System: L1210 leukemia ip in BDF1 mice, survival T/C
assay comment: NCI In Vivo Anticancer Drug Screen. Data for tumor model L1210 Leukemia (intraperitoneal) in B6D2F1 (BDF1) mice
condition context: endpoint: mean survival time; dose: 200.0 mg/kg/injection; schedule: Q01DX001 (ip); vehicle: acetone; higher = longer survival
Inconclusive results and toxic doses are left out.

>  <test smiles>
Cc1cc(C)c(CC(=N)c2ccccc2)c(C)c1

>  <assayed system>
L1210 leukemia ip in BDF1 mice, survival T/C

>  <T/C>
94 % of control

$$$$
>  <test smiles>
CNc1cnc(Cl)nc1Cl

>  <assayed system>
L1210 leukemia ip in BDF1 mice, survival T/C

>  <T/C>
97 % of control

$$$$
>  <test smiles>
c1ccc2c(c1)ccc1ccc[s+]c12

>  <assayed system>
L1210 leukemia ip in BDF1 mice, survival T/C

>  <T/C>
103 % of control

$$$$
>  <test smiles>
CS(=O)(=O)c1ccccc1C(=O)O

>  <assayed system>
L1210 leukemia ip in BDF1 mice, survival T/C

>  <T/C>
101 % of control

$$$$
>  <test smiles>
FC(F)(CI)C(F)(F)C(F)(F)CI

>  <assayed system>
L1210 leukemia ip in BDF1 mice, survival T/C

>  <T/C>
88 % of control

$$$$
>  <test smiles>
CCC/C(C)=N/Nc1ccccn1

>  <assayed system>
L1210 leukemia ip in BDF1 mice, survival T/C

>  <T/C>
103 % of control

$$$$

----------
Tested on: L1210 leukemia ip in BDF1 mice, survival T/C
assay comment: NCI In Vivo Anticancer Drug Screen. Data for tumor model L1210 Leukemia (intraperitoneal) in B6D2F1 (BDF1) mice
condition context: endpoint: mean survival time; dose: 100.0 mg/kg/injection; schedule: Q04DX003 (ip); vehicle: saline; higher = longer survival
Inconclusive results and toxic doses are left out.

>  <compound>
CCCCCCCC(=O)NOS(=O)(=O)O

>  <assayed system>
L1210 leukemia ip in BDF1 mice, survival T/C

>  <T/C>
95 % of control

$$$$
>  <compound>
O=C(O)CN1C(=O)C2C3CCC(O3)C2C1=O (stereo not drawn)

>  <assayed system>
L1210 leukemia ip in BDF1 mice, survival T/C

>  <T/C>
107 % of control

$$$$
>  <compound>
CCN(CC)CCOc1c(C(C)C)cccc1C(C)C

>  <assayed system>
L1210 leukemia ip in BDF1 mice, survival T/C

>  <T/C>
117 % of control

$$$$

----------
Test system: L1210 leukemia ip in BDF1 mice, survival T/C
assay comment: NCI In Vivo Anticancer Drug Screen. Data for tumor model L1210 Leukemia (intraperitoneal) in B6D2F1 (BDF1) mice
condition context: endpoint: mean survival time; dose: 400.0 mg/kg/injection; schedule: Q04DX002 (ip); vehicle: saline; higher = longer survival
Inconclusive results and toxic doses are left out.
assay endpoint: T/C

>  <compound>
O=C1OC(C(O)C(O)C(O)CO)C(O)C1O (configuration not stated)

>  <assay endpoint>
T/C

>  <reading>
108 % of control

$$$$
>  <compound>
CNC(=O)NC1C(CO)OC2OC(C)(C)OC21 (configuration not stated)

>  <assay endpoint>
T/C

>  <reading>
94 % of control

$$$$
>  <compound>
CCCOCCOCCOC(C)Oc1ccc(C(=O)OC)cc1 (configuration not stated)

>  <assay endpoint>
T/C

>  <reading>
99 % of control

$$$$
>  <compound>
CC(=O)NC(CO)C(O)C(O)C(O)CO (configuration not stated)

>  <assay endpoint>
T/C

>  <reading>
93 % of control

$$$$
>  <compound>
O=C(O)c1nnn(Cc2ccccc2)c1C(=O)O

>  <assay endpoint>
T/C

>  <reading>
96 % of control

$$$$
>  <compound>
C[n+]1ccc(/C(N)=N/O)cc1

>  <assay endpoint>
T/C

>  <reading>
96 % of control

$$$$
>  <compound>
O=C1CNCSC1

>  <assay endpoint>
T/C

>  <reading>
94 % of control

$$$$
>  <compound>
Nc1cc(=O)[nH]c(=S)[nH]1

>  <assay endpoint>
T/C

>  <reading>
101 % of control

$$$$
>  <compound>
Nc1ccc([As](=O)(O)O)cc1

>  <assay endpoint>
T/C

>  <reading>
87 % of control

$$$$
>  <compound>
c1ccc(P(CCP(CCP(c2ccccc2)c2ccccc2)c2ccccc2)CCP(c2ccccc2)c2ccccc2)cc1 (configuration not stated)

>  <assay endpoint>
T/C

>  <reading>
101 % of control

$$$$
>  <compound>
O=Cc1cccc(OCc2cccc([N+](=O)[O-])c2)c1

>  <assay endpoint>
T/C

>  <reading>
108 % of control

$$$$
>  <compound>
CN1CCN(C(=O)C2CCCCC2C(=O)O)CC1 (configuration not stated)

>  <assay endpoint>
T/C

>  <reading>
96 % of control

$$$$
